- Test system: six V600E BRAF melanoma cell lines
- test-details: Screening of recombinant RTK ligands for ability to confer resistance to BRAFi (PLX4720) or MEKi (PD184352) (Table 4)
- Assay type: cell-based, human
- Design: scale not given here
- condition-info: C32, PD184352 - 1 uM, ligand 6.25 ng/ml
endpoint-name: ability of recombinant RTK ligand to confer resistance
Answer as a number with no unit attached.

IN: Item VEGF-C (protein, UniProt P49767 112-227, looked up) Vascular endothelial growth …: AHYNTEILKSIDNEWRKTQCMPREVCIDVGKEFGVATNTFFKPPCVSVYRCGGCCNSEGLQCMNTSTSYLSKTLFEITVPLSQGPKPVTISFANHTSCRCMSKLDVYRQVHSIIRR has what recorded ability of recombinant RTK ligand to confer resistance?
OUT: 1.03

IN: Quick check: ability of recombinant RTK ligand to confer resistance of Ephrin-A4 (protein, UniProt P52798 26-170, looked up) Ephrin-A4: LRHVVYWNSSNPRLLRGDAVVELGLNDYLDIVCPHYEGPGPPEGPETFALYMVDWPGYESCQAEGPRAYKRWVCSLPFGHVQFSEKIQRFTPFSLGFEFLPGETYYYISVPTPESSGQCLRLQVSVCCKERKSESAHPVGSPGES ?
OUT: 1.02

IN: // query ability of recombinant RTK ligand to confer resistance value for entry GDNF (protein, UniProt P39905 78-211, looked up) Glial cell line-derived …: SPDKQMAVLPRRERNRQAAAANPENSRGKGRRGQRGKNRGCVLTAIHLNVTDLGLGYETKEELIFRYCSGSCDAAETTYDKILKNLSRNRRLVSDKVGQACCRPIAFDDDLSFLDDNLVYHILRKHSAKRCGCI
OUT: 1.03

IN: Return reported ability of recombinant RTK ligand to confer resistance; argument: flt-3 ligand (FL) (protein, UniProt P49771 27-235, looked up) Fms-related tyrosine kinase 3 …: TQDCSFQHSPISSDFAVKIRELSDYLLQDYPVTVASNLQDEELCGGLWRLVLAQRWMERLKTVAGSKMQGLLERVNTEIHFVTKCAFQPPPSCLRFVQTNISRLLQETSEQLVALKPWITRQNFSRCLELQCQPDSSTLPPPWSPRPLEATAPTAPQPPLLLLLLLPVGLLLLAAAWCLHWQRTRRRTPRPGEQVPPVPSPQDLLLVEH
OUT: 1.10

IN: // lookup ability of recombinant RTK ligand to confer resistance for BDNF (protein, UniProt P23560 19-247, looked up) Neurotrophic factor BDNF …: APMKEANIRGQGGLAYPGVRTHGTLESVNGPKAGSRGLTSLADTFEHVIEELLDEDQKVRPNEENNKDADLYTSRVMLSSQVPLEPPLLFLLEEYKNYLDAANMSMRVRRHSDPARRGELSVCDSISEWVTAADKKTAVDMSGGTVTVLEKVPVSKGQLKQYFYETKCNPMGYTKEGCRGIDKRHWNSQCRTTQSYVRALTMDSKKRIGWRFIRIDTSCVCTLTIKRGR
OUT: 1.06
